src = patent US4683240A

# System: Total Serum Cholesterol
# Assay Explanation: Hypolipidemic effect: total serum cholesterol
# Assay type: in vivo, rat (Wistar-strain)
# Experimental Parameters: 100 mg/kg oral, 2 h; control 44 ± 2 (compounds 4-12), 41 ± 1 (compounds 15-29)

Structure Smiles String: Cc1ccccc1CN1C(=O)NC(=O)C1=O
Total Serum Cholesterol Level, mg/dL: 36
--
Structure Smiles String: O=C1NC(=O)N(Cc2ccc(Br)cc2)C1=O
Total Serum Cholesterol Level, mg/dL: 36
--
Structure Smiles String: COc1ccc(CN2C(=O)NC(=O)C2=O)cc1
Total Serum Cholesterol Level, mg/dL: 36
--
Structure Smiles String: O=C1NC(=O)N(Cc2ccccc2)C1=O
Total Serum Cholesterol Level, mg/dL: 33
